# tgt: recombinant intracellular human glutaminyl cyclase (Homo sapiens (Human))
# Sequence (Q9NXS2 whole entry): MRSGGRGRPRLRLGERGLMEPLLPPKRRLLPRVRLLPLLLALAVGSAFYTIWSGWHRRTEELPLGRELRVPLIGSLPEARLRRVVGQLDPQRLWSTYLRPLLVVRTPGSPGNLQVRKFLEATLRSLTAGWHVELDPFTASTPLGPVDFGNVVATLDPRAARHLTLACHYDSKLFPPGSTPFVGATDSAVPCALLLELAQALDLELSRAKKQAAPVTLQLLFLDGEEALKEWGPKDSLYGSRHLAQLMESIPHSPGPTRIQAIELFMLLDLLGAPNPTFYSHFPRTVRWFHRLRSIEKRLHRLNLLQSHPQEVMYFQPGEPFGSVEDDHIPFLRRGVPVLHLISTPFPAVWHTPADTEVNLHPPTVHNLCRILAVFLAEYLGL
# assay: Enzymatic activity of human glutaminyl cyclase in vitro (fluorescent substrate Gln-bNA)
# run.conditions: 25° C., 50 μM Gln-bNA, pH 8.0

>  <smiles.input>
O=C(NCCc1cnc[nH]1)NCCc1cnc[nH]1

>  <unit.text>
nM

>  <Ki>
2000

$$$$
